# Assay target: ALDH2 (Homo sapiens)
# Sequence (P05091 18-517): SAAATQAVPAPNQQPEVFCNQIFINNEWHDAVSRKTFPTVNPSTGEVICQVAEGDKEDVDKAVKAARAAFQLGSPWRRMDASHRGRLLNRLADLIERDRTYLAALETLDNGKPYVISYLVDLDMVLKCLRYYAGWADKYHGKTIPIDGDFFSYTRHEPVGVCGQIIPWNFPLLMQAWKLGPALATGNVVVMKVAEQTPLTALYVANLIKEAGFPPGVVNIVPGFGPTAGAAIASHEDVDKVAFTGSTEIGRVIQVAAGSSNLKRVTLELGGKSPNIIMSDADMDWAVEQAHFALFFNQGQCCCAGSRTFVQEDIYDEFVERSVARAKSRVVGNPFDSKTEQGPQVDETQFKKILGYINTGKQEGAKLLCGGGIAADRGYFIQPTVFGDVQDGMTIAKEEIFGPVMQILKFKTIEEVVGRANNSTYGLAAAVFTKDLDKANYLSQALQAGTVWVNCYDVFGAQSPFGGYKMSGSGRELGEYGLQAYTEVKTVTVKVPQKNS
# Experiment notes: Inhibition of ALDH isoenzymes (NAD(P)H formation at 340 nm, purified recombinant enzyme);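 further: run at 25 °C, started by adding substrate after 2 min preincubation, with 100-200 nM ALDH2, 200 µM NAD+, 100 µM propionaldehyde, 1% DMSO in BES buffer pH 7.5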
# Format: biochemical
# Assay context: compound at 20 μM; read-out: ALDH2 % Control at 20 μM
Assay metric: remaining activity at 20 µM (%)

>>> experimental_result("CCn1ncc2c(=O)n(-c3ccccc3C)c(SCc3cccc(F)c3)nc21")
93
>>> experimental_result("Cn1ncc2c(=O)n(-c3ccccc3)c(CNCc3cccc(F)c3)nc21")
98
>>> experimental_result("O=c1c2cn(CC3COC3)nc2nc(OCc2cccc(F)c2)n1-c1ccccc1")
102
>>> experimental_result("Cn1ncc2c(=O)n(C3CCCC3)c(SCc3cccc(F)c3)nc21")
117
>>> experimental_result("CC(Sc1nc2nn(C3COC3)cc2c(=O)n1-c1ccccc1)c1ccccc1 (stereo not drawn)")
96
>>> experimental_result("CC(Sc1nc2nn(CC3COC3)cc2c(=O)n1-c1ccccc1)c1ccccc1 (stereo not drawn)")
100
